# METHOD_NOTES: refractive index (Na D-line) (dimensionless)
# PARTICULARS: 303.15 K; 101.33 kPa; Liquid; Standard Abbe refractometry
Readings of refractive index for the listed compounds
MEASUREMENT_TYPE: refractive index

INSERT INTO assay_data (smiles_representation, recorded_value) VALUES
  ('CCCCCO', 1.40592),
  ('ClC(Cl)C(Cl)Cl', 1.48887),
  ('CCCCCCCCCCO', 1.43364),
  ('CCCCCCCO', 1.42047),
  ('CCCCCCCCO', 1.42563),
  ('CCCCCCO', 1.41423);

* * *

# PARTICULARS: 293.15 K; 101 kPa; Liquid
As shown below, each of these compounds has a reported mass density value.
MEASUREMENT_TYPE: mass density (kg/m3)

INSERT INTO results (smiles_representation, measurement_type, unit_of_measurement, recorded_value) VALUES
  ('CCCCCCCO', 'mass density', 'kg/m3', 822.14),
  ('CCCCCCCCO', 'mass density', 'kg/m3', 825),
  ('CCCCCCO', 'mass density', 'kg/m3', 818.72),
  ('CCCCCO', 'mass density', 'kg/m3', 814.72),
  ('ClC(Cl)C(Cl)Cl', 'mass density', 'kg/m3', 1594.27),
  ('CCCCCCCCCCO', 'mass density', 'kg/m3', 829.84);

* * *

# PARTICULARS: 303.15 K; 101 kPa; Liquid
Listed below: mass density values for each entry.
MEASUREMENT_TYPE: mass density (kg/m3)

INSERT INTO assay_data (compound, measurement_type, unit_of_measurement, recorded_value) VALUES
  ('CCCCCCCO [heptan-1-ol]', 'mass density', 'kg/m3', 815.41),
  ('CCCCCCCCCCO [decan-1-ol]', 'mass density', 'kg/m3', 822.83),
  ('ClC(Cl)C(Cl)Cl [1,1,2,2-tetrachloroethane]', 'mass density', 'kg/m3', 1574.85),
  ('CCCCCO [pentan-1-ol]', 'mass density', 'kg/m3', 807.6),
  ('CCCCCCCCO [octan-1-ol]', 'mass density', 'kg/m3', 818.09),
  ('CCCCCCO [hexan-1-ol]', 'mass density', 'kg/m3', 811.73);

* * *

# METHOD_NOTES: refractive index (Na D-line) (dimensionless)
# PARTICULARS: 293.15 K; 101.33 kPa; Liquid; Standard Abbe refractometry
Reported refractive index is given for each of the following compounds.
MEASUREMENT_TYPE: refractive index

INSERT INTO assay_data (compound, recorded_value) VALUES
  ('CCCCCCO [hexan-1-ol]', 1.41807),
  ('CCCCCCCCCCO [decan-1-ol]', 1.43694),
  ('CCCCCCCO [heptan-1-ol]', 1.42397),
  ('CCCCCO [pentan-1-ol]', 1.40976),
  ('CCCCCCCCO [octan-1-ol]', 1.42941),
  ('ClC(Cl)C(Cl)Cl [1,1,2,2-tetrachloroethane]', 1.49387);
